PROCEDURE DETAILS: Physicochemical properties: absorption and fluorescence (Table 1)
TEST CONTEXT: absorption wavelength, determined in 95% ethanol
ASSAY ENDPOINT: Abs. (nm)

What value of Abs. (nm) has been recorded for this entry: "COc1cc(O)cc2oc(=O)cc(C[C@H](N)C(=O)O)c12.O=C(O)C(F)(F)F"
323

What value of Abs. (nm) has been recorded for this entry: "N[C@@H](Cc1cc(=O)oc2cc(O)ccc12)C(=O)O.O=C(O)C(F)(F)F"
329

What value of Abs. (nm) has been recorded for this entry: "N[C@@H](Cc1cc(=O)oc2cc(O)cc(O)c12)C(=O)O.O=C(O)C(F)(F)F"
327

What value of Abs. (nm) has been recorded for this entry: "COc1ccc2c(C[C@H](N)C(=O)O)cc(=O)oc2c1.CS(=O)(=O)O"
324

---

PROCEDURE DETAILS: Physicochemical properties: absorption and fluorescence (Table 1)
TEST CONTEXT: absorption wavelength, determined in 95% ethanol
ASSAY ENDPOINT: Abs. (nm)

What value of Abs. (nm) has been recorded for this entry: COc1ccc2c(C[C@@H](N)C(=O)O)cc(=O)oc2c1.O=C(O)C(F)(F)F [Example 8]
323

What value of Abs. (nm) has been recorded for this entry: COc1ccc2c(CC[C@H](N)C(=O)O)cc(=O)oc2c1.O=C(O)C(F)(F)F [Example 16]
321

What value of Abs. (nm) has been recorded for this entry: N[C@@H](Cc1cc(=O)oc2cc(O)c(Cl)cc12)C(=O)O.O=C(O)C(F)(F)F [Example 10]
331

What value of Abs. (nm) has been recorded for this entry: COc1cc(O)c2c(C[C@H](N)C(=O)O)cc(=O)oc2c1.O=C(O)C(F)(F)F [Example 12]
329

What value of Abs. (nm) has been recorded for this entry: CCOc1ccc2c(C[C@H](N)C(=O)O)cc(=O)oc2c1.O=C(O)C(F)(F)F [Example 11]
325

What value of Abs. (nm) has been recorded for this entry: COc1cc2oc(=O)cc(C[C@H](N)C(=O)O)c2cc1OC.O=C(O)C(F)(F)F [Example 9]
345

What value of Abs. (nm) has been recorded for this entry: N[C@@H](Cc1c[nH]c2ccccc12)C(=O)O [W, tryptophan, reference compound]
278

What value of Abs. (nm) has been recorded for this entry: N[C@@H](Cc1ccc(O)cc1)C(=O)O [Y, tyrosine, reference compound]
274

What value of Abs. (nm) has been recorded for this entry: COc1cc(OC)c2c(C[C@H](N)C(=O)O)cc(=O)oc2c1.O=C(O)C(F)(F)F [Example 14]
324

What value of Abs. (nm) has been recorded for this entry: COc1ccc2c(CC[C@H](N)C(=O)OCc3ccccc3)cc(=O)oc2c1.O=C(O)C(F)(F)F [Example 17]
322
